ASSAY_TARGET: T1, CEACAM1 antigen (Sino Biological, Inc.) (UniProt P13688 35-428)
T1 construct: Bought antigen coated on the ELISA plate; construct not described; also called CEACAM1 (CD66a) antigen; CD66a
T1 sequence (looked up): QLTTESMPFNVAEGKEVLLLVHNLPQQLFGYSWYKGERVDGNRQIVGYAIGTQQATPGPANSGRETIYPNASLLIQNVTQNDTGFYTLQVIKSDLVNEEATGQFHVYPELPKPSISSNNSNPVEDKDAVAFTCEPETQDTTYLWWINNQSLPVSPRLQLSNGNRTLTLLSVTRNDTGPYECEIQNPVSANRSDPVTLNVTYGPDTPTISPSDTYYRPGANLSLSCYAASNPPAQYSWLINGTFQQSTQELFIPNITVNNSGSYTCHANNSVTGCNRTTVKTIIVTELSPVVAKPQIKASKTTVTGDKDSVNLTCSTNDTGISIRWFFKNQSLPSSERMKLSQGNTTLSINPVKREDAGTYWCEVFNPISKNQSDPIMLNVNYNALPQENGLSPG
PROTOCOL_DETAILS: ELISA, coated CEACAM1 100 ng/well, antibody 123.46 ng/ml
METRIC: OD 450 nm (OD)
Return type: number; implicit unit OD.

(Q) What OD 450 nm value was documented for this binder, recombinant humanized anti-CD66c antibody Protein ID 3058 (Vk8 + VH11) (antibody, human IgG1, V domains shown, also called hu 3058; #86) VH: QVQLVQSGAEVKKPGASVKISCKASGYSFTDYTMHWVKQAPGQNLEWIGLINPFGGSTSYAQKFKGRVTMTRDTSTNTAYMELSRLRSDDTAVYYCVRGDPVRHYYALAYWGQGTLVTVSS VL: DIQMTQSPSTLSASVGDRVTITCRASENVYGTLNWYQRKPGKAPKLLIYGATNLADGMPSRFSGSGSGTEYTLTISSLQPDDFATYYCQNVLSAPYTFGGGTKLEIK ?
(A) 0.07
